- Study target: T1, Recombinant human CD4 (R&D Systems, Cat. 10327-CD) (human, UniProt P01730 26-390, limits assumed)
- T1 construct: Bought soluble recombinant protein used as analyte at 100 nM; also called huCD4
- Test summary: BLI (Octet Red384), non-clonal supernatant on AMC sensor, 100 nM human CD4, 1:1 local fit;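 also: hybridoma antibodies captured from supernatant, single CD4 concentration as analyte, association and dissociation phases fitted together, giving single-point kinetic estimates per supernatant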
# koff per record follows
Write down the numeric answer in s⁻¹ and omit the unit.

Input line: Tell me its koff given 75110_01C18A (antibody, V domains shown, Non-clonal AlivaMab Mouse Kappa hybridoma supernatant, captured by anti-mouse IgG Fc (human V regions, mouse Fc)) VH: EVQLVESGGGLIQPGGSLRLSCAASGFTVSSNYMNWVRQAPGKGLEWVSVIYAGDNTYSADSVKGRFTISRDNSNNTLCLQMNSLRAEDTAVYYCAREGGTTGAFDIWGQGTMVTVSS VL: DIQMTQSPSSVSASVGDRVTITCRASQGINSWLAWYQQKPGKAPKLLIYAASSLQSGVPSRFSGSGSGTDFTLTISSLQPEDFATYYCQQGNSFPYTFGQGTKLEIK as the entry.
Output line: 0.0013

Input line: Tell me its koff given 75110_05E13A (antibody, V domains shown, Non-clonal AlivaMab Mouse Kappa hybridoma supernatant, captured by anti-mouse IgG Fc (human V regions, mouse Fc)) VH: EVQLVESGGDLVKPGGSLRLSCAASGFSFSNAWMSWVRQAPGKGLEWVGRVESKTDGGTTDYAAPVKDRFTISRDDSKYTLYLQMNSLKTEDSAVYYCTIGGGFGLELYGFFDYWGQGTLVTVSS VL: DIQMTQSPSTLSASVGDRVTITCRASQSISSWLAWYQQKPGKAPMLLIYKASSLESGVPSRFSGSGSGTEFTLTISSLQPDDFATYYCLQYNSYYTFGQGTKLEIK as the entry.
Output line: 0.0012

Input line: Tell me its koff given 75110_05A11A (antibody, V domains shown, Non-clonal AlivaMab Mouse Kappa hybridoma supernatant, captured by anti-mouse IgG Fc (human V regions, mouse Fc)) VH: EVQLVESGGGLVKPGGSLTLSCAASGFTFSNTWMSWVRQAPGKGLEWVGRIKSKIDGGTTDYAAPVKGRFTISRDDSKNTLYLQMNSLKTEDTAVYYCTTSGTYSSGWGLFDYWGQGTLVTVSS VL: DIQMTQSPSSLSASVGDRVTITCQASQDISNYLNWYQQKPGKAPKLLIYDTSNLEAGVPSRFSGSGSGTHFTLTISSLQPEDIATYYCQQYDNLPFTFGGGTRVEIK as the entry.
Output line: 0.00055
